# Procedure details: Human HepG2 cell viability assay in 384 well format
# Type: toxicity, cell-based
# Parameters: dose 125 nL, time 70.5 hour; concentration not given beside the values
# Setup conditions: HepG2 cells, read-out: Inhibition
Quantity measured: cytotoxicity at 70.5 h

molecule="CC(NCCNS(=O)(=O)c1cccc(Cl)c1)C1CCOCC1 (centres undefined)" value_reported=-6.77%
molecule=O=C(C1CCC1)N1C[C@@H]2CN(Cc3ccncc3)C(=O)[C@@H]2C1 value_reported=-12.5%
molecule=CN1CCC(N2CCC[C@H]2c2nc(-c3cncnc3N)no2)CC1 value_reported=-0.402%
molecule=Cc1nn(C)c(=O)c2nn(-c3cccc(Cl)c3)c(C)c12 value_reported=-14.1%

* * *

# Procedure details: Human HepG2 cell viability assay in 384 well format
# Assay type: toxicity, cell-based
# Parameters: dose 125 nL, time 70.5 hour; concentration not given beside the values
# Setup conditions: HepG2 cells, read-out: Inhibition
Quantity measured: cytotoxicity at 70.5 h (%)

compound=Cc1cccc(NC(=O)[C@@H]2CCCN2Cc2ccc(C#N)cc2F)n1 quantity_measured="cytotoxicity at 70.5 h" value_reported=-0.253
compound=Cn1ccnc1C1CCN(S(=O)(=O)c2ccc3[nH]c(=O)[nH]c3c2)CC1 quantity_measured="cytotoxicity at 70.5 h" value_reported=15.5
compound=Cc1nc(CN2CCC23CCN(Cc2ccco2)CC3)cs1 quantity_measured="cytotoxicity at 70.5 h" value_reported=-5.68
compound=COCC(=O)N1CCC(c2cccc(Cc3ccc(F)cc3)n2)CC1 quantity_measured="cytotoxicity at 70.5 h" value_reported=-6.39
compound=COCCNC(=O)c1nnn(Cc2ccccc2)c1OC quantity_measured="cytotoxicity at 70.5 h" value_reported=-2.5
compound=Cc1c(C(=O)O)sc2nc(Cc3ccccc3)nc(N)c12 quantity_measured="cytotoxicity at 70.5 h" value_reported=-3.73
compound=COc1cc2c(cc1CCC(=O)O)CCC2 quantity_measured="cytotoxicity at 70.5 h" value_reported=17.1
compound=CCc1cc(N(C)Cc2ccncn2)n2nc(C)c(C)c2n1 quantity_measured="cytotoxicity at 70.5 h" value_reported=-5.09
compound="CC(C)C1CN(C(=O)c2ccc(C(N)=O)cc2)CCS1 (stereo not drawn)" quantity_measured="cytotoxicity at 70.5 h" value_reported=-6
compound="FC(F)(F)c1nc(NC2CCc3ncnn3C2)c2ccccc2n1 (stereo not drawn)" quantity_measured="cytotoxicity at 70.5 h" value_reported=24.8
compound="COCCC1(CO)CCCN(C(=O)c2ccc(C(C)C)[nH]c2=O)C1 (stereo not drawn)" quantity_measured="cytotoxicity at 70.5 h" value_reported=11.1
compound=C[C@@H]1C[C@@H]2CCN(Cc3nccs3)C[C@H]2O1 quantity_measured="cytotoxicity at 70.5 h" value_reported=-9.1
compound=CCN(CC)C(=O)c1c(Cl)cnn1CC quantity_measured="cytotoxicity at 70.5 h" value_reported=-0.536
compound=COc1ccc(CN2CCCC2)cc1Oc1cccc(C#N)n1 quantity_measured="cytotoxicity at 70.5 h" value_reported=-2.11
compound="CC(CNC(=O)c1cnccn1)Oc1ccc(F)cc1 (stereo not drawn)" quantity_measured="cytotoxicity at 70.5 h" value_reported=-8.73
compound="COc1ccc(C(=O)NC(CC(=O)O)c2cccs2)c(OC)c1 (stereo not drawn)" quantity_measured="cytotoxicity at 70.5 h" value_reported=-11.6
compound=O=C(NCc1ccco1)[C@H]1CC[C@@H]2[C@@H](CCN2C2CCC2)O1 quantity_measured="cytotoxicity at 70.5 h" value_reported=-15.1
compound=O=C(Nc1ccc(F)cc1F)Nc1c[nH]c(=O)[nH]c1=O quantity_measured="cytotoxicity at 70.5 h" value_reported=-14.5
compound="c1ccc(-c2noc(CCCN3CCCC3Cn3cncn3)n2)cc1 (stereo not drawn)" quantity_measured="cytotoxicity at 70.5 h" value_reported=-13.4
compound=CCOc1ncccc1CNc1cc(COC)ncn1 quantity_measured="cytotoxicity at 70.5 h" value_reported=1.28
compound=CC(C)c1nnc2ccc(N3CCC(C(=O)Nc4nccs4)CC3)nn12 quantity_measured="cytotoxicity at 70.5 h" value_reported=10.7
compound="O=C(NCC1CCOC1)c1ccc(OCC(F)(F)F)nc1 (stereo not drawn)" quantity_measured="cytotoxicity at 70.5 h" value_reported=-5.4
compound="CC(=O)N1CCc2[nH]cnc2C12CCN(CC1CCOC1)CC2 (stereo not drawn)" quantity_measured="cytotoxicity at 70.5 h" value_reported=-5.5
compound="CCN1CCc2c(cccc2NC(=O)CN(C)C2CCSC2)C1 (stereo not drawn)" quantity_measured="cytotoxicity at 70.5 h" value_reported=-3.51
compound="CC(C1CC1)N(C)C(=O)c1cnc(-c2ccc3c(c2)OCO3)s1 (stereo not drawn)" quantity_measured="cytotoxicity at 70.5 h" value_reported=13.8
compound=CCN(CC)C(=O)[C@@H]1C[C@H](n2cc(-c3cccc(OC)c3)nn2)CN1 quantity_measured="cytotoxicity at 70.5 h" value_reported=-3.79
compound="CC(Cn1ccnc1)NC(=O)N1CCCN(Cc2cccs2)CC1 (stereo not drawn)" quantity_measured="cytotoxicity at 70.5 h" value_reported=-14
compound="Cn1cc(C(=O)N2CCCC(Cc3cnccn3)C2)cn1 (stereo not drawn)" quantity_measured="cytotoxicity at 70.5 h" value_reported=-15.6
compound=O=C(c1nn(-c2ccccc2F)cc1O)N1CCCSCC1 quantity_measured="cytotoxicity at 70.5 h" value_reported=2.69
compound="COc1cccc2c1OCC(C(=O)N1CCN(C3CCCC3)C(=O)C1)C2 (stereo not drawn)" quantity_measured="cytotoxicity at 70.5 h" value_reported=-5.59
compound=CCc1cnc(NCCCOC2CCCC2)nc1 quantity_measured="cytotoxicity at 70.5 h" value_reported=-16.5
compound="CC(C)c1nc(C2CCCN2Cc2nccn2CC(F)(F)F)no1 (stereo not drawn)" quantity_measured="cytotoxicity at 70.5 h" value_reported=-8.8
compound="CN(Cc1ccncc1)C1COC2(CCN(Cc3nccn3C)CC2)C1 (stereo not drawn)" quantity_measured="cytotoxicity at 70.5 h" value_reported=-8.93
compound=CC(C)Oc1ncccc1CNC(=O)c1cc[nH]n1 quantity_measured="cytotoxicity at 70.5 h" value_reported=-7.86
compound="COCC1c2nnn(CC3CC3)c2CCN1C(=O)CS(C)(=O)=O (stereo not drawn)" quantity_measured="cytotoxicity at 70.5 h" value_reported=-12.6
compound=Cc1nc(C)c(C)c(NCCSCc2[nH]cnc2C)n1 quantity_measured="cytotoxicity at 70.5 h" value_reported=-5.17
compound=CCc1cnc(N)nc1NCc1ccc(OC)c(OC)c1 quantity_measured="cytotoxicity at 70.5 h" value_reported=-1.08
compound="COCC1CN(C(=O)Nc2cc(Br)ccc2F)CCO1 (stereo not drawn)" quantity_measured="cytotoxicity at 70.5 h" value_reported=-10.1
compound="CCC(C)NC(=O)NCCCn1nc2ccccn2c1=O (stereo not drawn)" quantity_measured="cytotoxicity at 70.5 h" value_reported=-9.52
compound=CCC(=O)N(CC(N)=O)Cc1cccc(Oc2ccccc2)c1 quantity_measured="cytotoxicity at 70.5 h" value_reported=0.0156
compound="COc1ccc(CN2CCCC2Cn2nc(C)nc2C)cc1F (stereo not drawn)" quantity_measured="cytotoxicity at 70.5 h" value_reported=-18.3
compound=CCNc1cc2c(nn1)CCN(C(=O)Cc1ccc3c(c1)CCO3)C2 quantity_measured="cytotoxicity at 70.5 h" value_reported=-7.37
compound=O=C(c1ccco1)N1CCO[C@@H]2CN(c3ncc(F)cn3)CC[C@@H]2C1 quantity_measured="cytotoxicity at 70.5 h" value_reported=-5.01
